System: conjunctival goblet cell mucous secretion
Assay: in vivo rat model: topical agents, density of mucin-containing goblet cells (alcian blue/PAS);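 further: rat eyes dosed topically with 20 µl drops every 20 min over 1 hr, non-secreted goblet cells counted in three 0.16 mm^2 conjunctival areas, lower density means more mucous secretion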
Conditions: Table 1, at optimal effective conc.
Where a name gives a salt, the structure may show the parent alone.
Field 'label' (enum: rule met / rule not met). Set to rule met when (Stimulus) Max % Increase in Secretion is strictly under 50%; else rule not met.

molecule="C[N+](C)(C)CCOC(N)=O.[Cl-] [carbachol, carbamyl choline chloride]" group_label="rule met"
molecule="CNC[C@H](O)c1cccc(O)c1 [phenylephrine, L-phenylephrine hydrochloride]" group_label="rule met"
molecule="NCCc1c[nH]c2ccc(O)cc12 [serotonin, 5-hydroxytryptamine]" group_label="rule not met"
molecule="CNC[C@H](O)c1ccc(O)c(O)c1 [epinephrine, (-)-epinephrine]" group_label="rule not met"
molecule="NCCc1ccc(O)c(O)c1 [dopamine, 3-hydroxytyramine]" group_label="rule not met"

These measurements were taken from patent US5545617A.
